- Assay protocol: chemical genetic growth profiling, strain panel (AID 1159580);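 note: tested at 20 µM; growth read once vehicle control cultures reached saturation at 30 °C; 1 = growth at the plate median or of vehicle wells; lower values mean less growth of the strain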
- Experimental setup: S. cerevisiae deletion strains, growth OD, locus YDR069C, strain doa4, stronger effect = lower value
Out of some 5,500 compounds screened, about 2,000 (36%) were called active. Inconclusive results (about 18%) are left out. Some of the results follow.
# normalized growth per record follows
Please give only the number in your answer, with no unit.

COc1cc(OC)c2c(c1Cl)OC1(C2=O)C(O)=CC(=O)CC1C (centres undefined) :: 1.01
CC(=O)Oc1ccc2c(c1)CCC1C2CCC2(C)C1CC(OC(C)=O)C2OC(C)=O (centres undefined) :: 0.954
CC(C(=O)O)c1ccc(N2Cc3ccccc3C2=O)cc1 (centres undefined) :: 0.993
CC(C)=CCC/C(C)=C/COc1ccc2ccc(=O)oc2c1 :: 0.998
COc1cc(O)c(C(=O)O)c(O)c1 :: 1.01

Query (compound): CCS(=O)(=O)CCn1c([N+](=O)[O-])cnc1C ; field requested: normalized growth
0.977

Query (compound): NCCS ; field requested: normalized growth
0.988

Query (compound): CNC(=O)CSP(=S)(OC)OC ; field requested: normalized growth
1.02

Query (compound): O=c1[nH]cnc2nc[nH]c12 ; field requested: normalized growth
1.04

Query (compound): CCCCC(=O)N(Cc1ccc(-c2ccccc2-c2nn[nH]n2)cc1)[C@H](C(=O)O)C(C)C ; field requested: normalized growth
0.993

Query (compound): CC(C)CCCC(C)[C@H]1CCC2C3CC[C@H]4CC(=O)CC[C@]4(C)C3CC[C@@]21C (some centres undefined) ; field requested: normalized growth
0.993

Query (compound): CCCCC(=O)O[C@H]1CCC2C3CCc4cc(O)ccc4C3CC[C@@]21C (some centres undefined) ; field requested: normalized growth
1.01

Query (compound): COc1ccc2ccc(=O)oc2c1CC=C(C)C ; field requested: normalized growth
1.03

Query (compound): CN(C)c1nc(N(C)C)nc(N(C)C)n1 ; field requested: normalized growth
0.979

Query (compound): C[C@H]1C(=O)O[C@@H]2CCN3CC=C(COC(=O)[C@](C)(O)[C@]1(C)O)[C@H]23 ; field requested: normalized growth
0.99

Query (compound): CC(C)=CCOc1cc2oc(=O)ccc2cc1O ; field requested: normalized growth
0.944
